Source: patent US7658917

target-under-test: natural β-amyloid peptide β-AP1-40 (human)
assay-summary: cell-based or functional assay
Fold Increase in Lag Time; nucleation assay; 100 mole % values by entry
parameter-measured: Fold Increase in Lag Time; nucleation assay; 100 mole %

* KLVFFAEDVGSNKGA [unmodified Aβ16-30] | > 4.5 fold
* DAEFRHDSGYEVHHQ [unmodified Aβ1-15] | ~1 fold
* AEDVGSNKGAIIGLM [unmodified Aβ21-35] | ~1 fold
* EVHHQKLVFFAEDVG [unmodified Aβ11-25] | ~1 fold
* DAEFRHDSGYKLVFFAEDVGSNKGAIIGLMVGGVV [Aβ1-10, 16-40(Δ11-15)] | ~1.2 fold
